tested on: HCT-15 colon; assay: NCI tumour cell line growth inhibition, 48 h
For each record, write down the corresponding TGI.

Below are worked cases with known answers.
Given "COc1ccc(-c2nnc(COc3ccc(NC(=O)Nc4cc(C(F)(F)F)cc(C(F)(F)F)c4)cc3F)o2)cc1" , state its recorded TGI.
6.06 µM

Likewise for N#CC12C(=O)N=C(N)C1(C#N)C(c1ccco1)NC1=C2CCCC1 (stereo not drawn) ?
> 100 µM

Continue with "N#CC(C#N)=CNC(N)=S"
> 100 µM

Follow-up item: OC(c1nc2ccccc2[nH]1)C(O)C(O)C(O)c1nc2ccccc2[nH]1 (stereo not drawn)
> 100 µM

Give TGI for all molecules that follow.
1. CC1=C[C@@H]2Cc3nc4cc(Cl)ccc4c(N)c3[C@H](C1)C2
2. CN(C)c1ccc(C(=N/N=C2\C(=O)Nc3ccccc32)c2ccc(N(C)C)cc2)cc1
3. CN(C)c1ccc(/C=C(\NC(=O)c2ccccc2)c2nc3ncncc3[nH]2)cc1
4. Cc1ccc(C(=C2Sc3ccccc3S2)C(=C2Sc3ccccc3S2)c2ccc(C)s2)s1

1. 24.3 µM
2. 18.7 µM
3. > 100 µM
4. > 100 µM

----------
system: UACC-257 melanoma; experiment: NCI tumour cell line growth inhibition, 48 h
Field: TGI. Provide a value for each of the compounds that follow.

Illustrative cases are given below, each with its answer.
Quick one: TGI of "O=C1c2cc3c(cc2-c2c1c1ccc(F)cc1c(=O)n2CCCNCCO)OCO3" ?
0.853 µM

How about this compound: "CCOC(=O)c1nc2c(nc1C(=O)OCC)C(=O)c1ccccc1C2=O"
1.28 µM

Same read-out for "COc1cccc2c(=O)oc(-c3ccc(C(C)(C)C)cc3)nc12" ?
> 100 µM

How about this compound: "O=C1NCC2(CCN(CCCC3(c4ccc(F)cc4)OCCO3)CC2)N1c1ccccc1"
> 100 µM

Thanks! And "NC1(C(=O)OCc2ccccc2)CCCC1" ?
41.9 µM

Quick one: "O=C(/C=C/c1ccc2c(c1)OCO2)CC(=O)C(=O)c1c[nH]c2ccccc12"
> 100 µM

Also "O=C1NCCN1/N=C/c1c(Cl)n(-c2ccccc2)c2ccccc12" ?
58.5 µM

Repeat with CC1=CC(O)(c2ccc(-c3ccccc3Cl)cc2)OC1=O (stereo unspecified)
> 100 µM

Here are 3 compounds. What values of TGI were reported for them?
1. OCC#Cc1ccccc1C#Cc1ccccc1
2. O=C(O)/C=C(/C(=O)O)C12CCN3CC4=CCOC5CC(=O)NC1C5C4CC32 (stereo unspecified)
3. O=C1OC(O)[C@@H]2[C@H]1[C@H]1CC[C@@H]2O1 (stereo partly specified)

1: 32 µM; 2: > 100 µM; 3: > 100 µM

----------
test system: MDA-N; assay: NCI tumour cell line growth inhibition, 48 h
property-measured: TGI

Below: 3 molecules and their reported TGI.
Bench note: what TGI did O=C(O)CCC(=O)OC1N=C(c2ccccc2Cl)c2cc([N+](=O)[O-])ccc2NC1=O (stereo unspecified) show?
> 100 µM

And "O=c1c2sc(=S)n(-c3ccc(F)cc3)c2ncn1/N=C/c1ccc(F)cc1F" ?
> 100 µM

Try the molecule "CC(=N/N=C/c1ccccn1)/C(C)=N/N=C(C)/C(C)=N/N=C(C)/C(C)=N/N=C(C)/C(C)=N\N=C\c1ccccn1"
> 100 µM

Could I get TGI for every one of these entries?
1. Cc1ccc(S(=O)(=O)N/N=C/C2(c3ccccc3)c3ccccc3-c3ccccc32)cc1
2. Cc1cn(C2CC(O)C(CO)O2)c(=O)[nH]c1=O (stereo unspecified)
3. CCN(CCCN(CC)C(=O)Nc1c(C)cccc1C)C(=O)Nc1c(C)cccc1C
4. C=C(Br)C(C)(Br)CCC(Br)C(C)(C)Cl (stereo unspecified)
5. CCOC(=O)c1cc2nc3ccccc3c(=O)n2c2ccccc12
6. Oc1ccc([I+]c2ccccc2)cc1O

1. 14.9 µM
2. > 5000 µM
3. > 100 µM
4. 39.8 µM
5. > 10 µM
6. > 100 µM

List reported TGI for each of these molecules:
1. O=c1[nH]c(Nc2nc3ccccc3[nH]2)nc(O)c1-c1ccccc1
2. COc1cccc(CCCNC(=O)Cc2cc(OC)c(OC)cc2CO)c1

1. > 100 µM
2. > 100 µM
